# Experiment: qHTS for induction of synthetic lethality in tumor cells producing 2HG: qHTS for the HT-1080-NT fibrosarcoma cell line;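 note: NT is the 2HG producing partner of a matched IDH1 knockdown line; nearly all actives have a fitted effect of over 55% in size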
# Recorded Conditions: HT-1080-NT fibrosarcoma viability, CellTiter-Glo ATP luminescence, 48 h; series mostly up to 46.1 µM
Screen size: about 360,000 compounds; about 6,000 (1.7%) were called active. Another 8% or so got no clear call; they are omitted. Calls come from the whole dose curve; as a rule, active = well fitted cell-killing curve with a large enough effect; inconclusive = small, poorly fitted or top-dose-only effect, or effect the other way; inactive = flat fitted curve, though single readings scatter. Shown is part of a subset that was picked to be rich in actives.
Classes used: active, inactive

| Compound | Cat |
| --- | --- |
| COc1cccc(CN(C)CC(O)COC(c2ccccc2)c2ccccc2C)c1 (centres undefined) | active |
| Cc1ccccc1-c1nc(NC(C)C)nc2cc(-c3ccccc3)sc12 | inactive |
| Cc1ccc(NC(=S)N(CCCN2CCC(C)CC2)Cc2ccco2)cc1 | inactive |
| Cc1cc(Br)cn2c(Cc3ccccc3C(F)(F)F)c(-c3ccc(Cl)cc3)nc12 | inactive |
| N/C(=N/O)c1cccn1Cc1ccccc1[N+](=O)[O-] | inactive |
| N#Cc1cccc(NC(=O)c2cc(C3CCCCN3C(=O)CCc3ccccc3)on2)c1 (centres undefined) | inactive |
| COc1ccc(S(=O)(=O)N2CCCCCC2)cc1NC(=O)Cc1ccc(OC)c(OC)c1 | inactive |
| Cc1ccc(-c2ccc(CN3C(C)C(=O)N(Cc4cn(CCC5OCCCO5)nn4)CCS3(=O)=O)cc2)cc1 (centres undefined) | inactive |
| O=c1c([N+](=O)[O-])cccn1Cc1ccc(F)cc1Cl | active |
| Cc1ccc(NC(=S)N(CCCN2CCCC2)Cc2cccn2Cc2ccc(Cl)cc2)cc1 | active |
| Cc1ccc(NC(=S)N(CCN2CCCCC2)Cc2ccco2)cc1C | inactive |
| Cc1ccc(C(=O)N2CCCc3ccccc32)c(Cl)c1 | inactive |
| Cc1ccccc1C(OCC(O)CN1CCCCC1CCO)c1ccccc1 (centres undefined) | inactive |
| CC(C)C1Cc2[nH][nH]c(=O)c2C(c2ccc(Cl)cc2)O1 (centres undefined) | inactive |

----------
# Experiment: qHTS for induction of synthetic lethality in tumor cells producing 2HG: qHTS for the HT-1080-NT fibrosarcoma cell line;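 note: NT is the 2HG producing partner of a matched IDH1 knockdown line; nearly all actives have a fitted effect of over 55% in size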; note: potency is the fitted concentration of half-maximal effect
# Recorded Conditions: HT-1080-NT fibrosarcoma viability, CellTiter-Glo ATP luminescence, 48 h; series mostly up to 46.1 µM
The campaign covered roughly 360,000 compounds. About 6,000 (1.7%) were called active. About 8% were inconclusive and are not listed. The sample holds actives, similar compounds and a random draw of the others, so the mix is not that of the screen.

| Compound | Potency |
| --- | --- |
| CCn1c(/C=C/c2ccc([N+](=O)[O-])o2)nc2ccccc2c1=O | 2.59 µM (active) |
| COc1ccc(NC(=O)N(C)C[C@@H]2OCc3cn(nn3)CCCC(=O)N([C@H](C)CO)C[C@H]2C)c(OC)c1 | inactive |
| CN(C)CCNC(=O)c1ccc(Cl)c2cc3ccccc3nc12 | 20.6 µM (active) |
| COCC(C)NC(=O)COc1nncc2ccccc12 (centres undefined) | inactive |
| CCc1ccccc1NC(=O)CSc1nnc([C@@H](NC(=O)OC(C)(C)C)C(C)CC)o1 (some centres undefined) | inactive |
| Cc1cc2nc(-c3ccc(F)cc3)c(Cc3ccsc3)n2c(C)c1Br | inactive |
| CCCNC(=O)C1(C)CCN(C(=O)c2ccc(F)cc2Cl)C1 (centres undefined) | inactive |
| Cn1cccc1/C=N/NC(=O)c1ccc(OC(F)(F)C(F)F)cc1 | inactive |
| O=C(Nc1ccc(OC(F)(F)F)cc1)c1ccc2c(c1)no[n+]2[O-] | 18.4 µM (active) |
| COc1ccccc1CNC(=O)c1cc(=O)c2ccccc2o1 | inactive |
| Cc1cc(C)c(S(=O)(=O)NN=C2c3ccccc3[C@H]3Cc4csc[n+]4[C@@H]23)c(C)c1 | inactive |
| Cc1ccc(-c2ccc(CN3C(C(C)C)C(=O)N(Cc4cn(CCC5OCCCO5)nn4)CCS3(=O)=O)cc2)cc1 (centres undefined) | inactive |
| Cc1cccc(CN2CCC(CNC(=O)Nc3ccc(F)c(Cl)c3)CC2)c1 | 16.4 µM (active) |
| CCc1nc2c(OCCOc3ccccc3)cccn2c1N(C)C(=O)c1cccs1 | inactive |
| O=C(COC(=O)/C=C/c1ccc(Cl)cc1)NC1CCS(=O)(=O)C1 (centres undefined) | inactive |
| Fc1cccc(Cc2c(-c3cccc(Cl)c3)nc3ccc(Br)cn23)c1 | inactive |
| NC(Cc1ccc(F)cc1)c1csc(Nc2nncc3ccccc23)n1 (centres undefined) | 23.1 µM (active) |
| COc1ncnc2c1ncn2CCCNCCN1CCOCC1 | inactive |
| Cc1cccc(C(=O)C(O)(c2ccccc2)C2CCCCC2=O)c1 (centres undefined) | inactive |
| CCOC(=O)N1CCN(C(=O)C[C@@H]2C[C@@]3(C(=O)OC)CCCCC=C3N(CCC3=CCCCC3)C2=O)CC1 | inactive |
| COC(=O)C[C@H]1C=C[C@@H](NS(=O)(=O)c2ccc(C)cc2)[C@@H](CO)O1 | inactive |
| O=C(NC(Nc1nc2ccc([N+](=O)[O-])cc2s1)(C(F)(F)F)C(F)(F)F)c1ccccc1 | 5.17 µM (active) |
| O=C(COC(=O)c1ccc(S(=O)(=O)N2CCCCCC2)cc1)Nc1ccccc1C(F)(F)F | inactive |
| COc1ccccc1NC(=O)[C@H](COCc1ccccc1)NC(=O)OC(C)(C)C | inactive |
